# literature pull: Adenosine receptor A3 (Mus musculus) pKi
# Sequence (Q61618 whole entry): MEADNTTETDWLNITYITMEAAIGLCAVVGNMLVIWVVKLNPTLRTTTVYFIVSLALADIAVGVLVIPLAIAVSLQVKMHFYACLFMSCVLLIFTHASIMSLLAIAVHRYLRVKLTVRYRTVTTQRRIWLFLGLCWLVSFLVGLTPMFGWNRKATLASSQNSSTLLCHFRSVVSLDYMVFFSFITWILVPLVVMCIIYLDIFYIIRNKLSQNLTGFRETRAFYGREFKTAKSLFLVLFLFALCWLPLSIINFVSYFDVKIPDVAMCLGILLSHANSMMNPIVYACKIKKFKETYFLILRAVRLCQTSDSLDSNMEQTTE
Quick note: pKi means taking -log10 of the concentration in moles per liter.

Observe how each entry below is paired with its result.
>>> reported("CNC(=O)[C@H]1O[C@@H](n2cnc3c(NC)nc(C#Cc4ccc(F)s4)nc32)[C@H](O)[C@@H]1O")
5.82
>>> reported("CNC(=O)[C@@]12C[C@@H]1[C@@H](n1cnc3c(NC)cc(C#Cc4ccc(F)s4)nc31)[C@H](O)[C@@H]2O")
7.43
>>> reported("CNC(=O)[C@@]12C[C@@H]1[C@@H](n1cnc3c(NCCc4ccc(OC)c(O)c4)nc(OC)nc31)[C@H](O)[C@@H]2O")
8.27

Suppose we examine the compound CCCOC(=O)[C@@]12C[C@@H]1[C@@H](n1cnc3c(NC)nc(C#Cc4ccc(Cl)s4)nc31)[C@H](O)[C@@H]2O ; what pKi value has been reported?
5.55

One more compound: CNC(=O)[C@@]12C[C@@H]1[C@@H](n1cnc3c(NCCc4ccc(O)c(OC)c4)nc(C#Cc4ccsc4)nc31)[C@H](O)[C@@H]2O
8.68

One more compound: CNC(=O)[C@@]12C[C@@H]1[C@@H](n1cnc3c(NCCc4ccc(OC)c(O)c4)nc(OCC4CC4)nc31)[C@H](O)[C@@H]2O
7.92

One more compound: CNC(=O)[C@@]12C[C@@H]1[C@@H](n1cnc3c(NCCc4ccc(O)c(OC)c4)nc(C#Cc4ccc(Cl)s4)nc31)[C@H](O)[C@@H]2O
8.50
